# Tested system: T1, human lysozyme (human, UniProt P61626 19-148)
# T1 construct: Bought; passed through Superdex 75 before SPR
# T1 sequence (looked up): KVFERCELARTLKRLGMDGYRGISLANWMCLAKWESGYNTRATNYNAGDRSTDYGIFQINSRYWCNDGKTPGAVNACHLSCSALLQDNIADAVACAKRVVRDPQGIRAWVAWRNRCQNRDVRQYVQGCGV
# Test method notes: SPR (Biacore 3000), human lysozyme over immobilized VL
This section presents binders with their documented pKd values.
pKd here: minus log base 10 of the concentration, concentration in moles per litre.

Example cases with answers are listed next.
| Binder | pKd |
| --- | --- |
| HVLHLYS (antibody, V domains shown, Anti-human lysozyme VL single-domain antibody from the HVLP324S library (Cys48/Cys64); not shown: C-terminal His6 tag) V domain: DIQMTQSPSSLSASVGDRVTITCQASQSIYSKLYWYQQKPGKAPKLLCFPASLLWSGVPSRFSCSGSGTDFTLTISNLQPEDFATYYCLQNAADPHRTFGHGTKVRL | 5.19 |
| HVLHLAQ (antibody, V domains shown, Anti-human lysozyme VL single-domain antibody from the HVLP324S library (Cys48/Cys64); not shown: C-terminal His6 tag) VL: DIQMTQSPSSLSASVGDRVTITCGASQSIAQRLYWYQQKPGKAPKLLCFPASLLHSGVPSRFSCSGSGTDFTLTISNLQPEDFATYYCAQRASPPRPTFGHGTKVTVL | 6.70 |
| HVLHLRN (antibody, V domains shown, Anti-human lysozyme VL single-domain antibody from the HVLP324S library (Cys48/Cys64); not shown: C-terminal His6 tag) VL: DIQMTQSPSSLSASVGDRVTITCKASQGIRNRLYWYQQKPGKAPKLLCFPASILDSGVPSRFSCSGSGTDFTLTISNLQPEDFATYYCAQQPGLPNSRTFGHGTKVTVL | 7.30 |
| HVLHLNN (antibody, V domains shown, Anti-human lysozyme VL single-domain antibody from the HVLP324S library (Cys48/Cys64); not shown: C-terminal His6 tag) VL: DIQMTQSPSSLSASVGDRVTITCSASQSINNRLYWYQQKPGKAPKLLCFPASFLFSGVPSRFSCSGSGTDFTLTISNLQPEDFATYYCQQSYSTPRTFGHGTKVTVL | 6.70 |
| HVLHLQI (antibody, V domains shown, Anti-human lysozyme VL single-domain antibody from the HVLP324S library (Cys48/Cys64); not shown: C-terminal His6 tag) VL: DIQMTQSPSSLSASVGDRVTITCRASQSIQIMLDWYQQKPGKAPKLLCFGASFLISGVPSRFSCSGSGTDFTLTISNLQPEDFATYYCRQTWTPPAPTFGHGTKVTVL | 5.59 |

Q: Please report the recorded pKd for HVLHLDS (antibody, V domains shown, Anti-human lysozyme VL single-domain antibody from the HVLP324S library (Cys48/Cys64); not shown: C-terminal His6 tag) VL: DIQMTQSPSSLSASVGDRVTITCTVSQGIDSRLYWYQQKPGKAPKLLCFPASLLESGVPSRFSCSGSGTDFTLTISNLQPEDFATYYCQQSYSTPRTFGHGTKVTVL .
A: 5.21

Q: Please report the recorded pKd for HVLHLNE (antibody, V domains shown, Anti-human lysozyme VL single-domain antibody from the HVLP324S library (Cys48/Cys64); not shown: C-terminal His6 tag) VL: DIQMTQSPSSLSASVGDRVTITCDASQSINERLYWYQQKPGKAPKLLCFPASILTSGVPSRFSCSGSGTDFTLTISNLQPEDFATYYCRQPRSGPSTFGHGTKVTVL .
A: 7.22

Data origin: patent US20170044238A1
